These data points were gathered from patent US8952150B2.

# systemTested: rat PGT (Rattus norvegicus (Rat), UniProt Q00910)
# method: [3H]PGE2 uptake inhibition in MDCK cells stably transfected with rat PGT (percent inhibition and IC50)
# Assay type: cell-based
# runConditions: 0.1 μM compound; inhibition of [3H]PGE2 uptake
recordedEndpoint: Inh (% of Ctl) 0.1 μM

compound="COc1ccc(C(=O)NCCOCCNc2nc(Nc3ccc(O)cc3)nc(Nc3ccc(C(=O)NCc4ccccc4)cc3)n2)cc1 [compound 137]" recordedendpoint="Inh (% of Ctl) 0.1 μM" obsvalue="42.0 % of Ctl"
compound="O=C(NCCOCCOCCNc1nc(Nc2ccc(O)cc2)nc(Nc2ccc(C(=O)NCc3ccc(F)cc3F)cc2)n1)c1ccccc1 [compound 131]" recordedendpoint="Inh (% of Ctl) 0.1 μM" obsvalue="22.3 % of Ctl"
compound="O=C(O)Cc1ccc(Nc2nc(NCCOCCOCCNC(=O)c3ccccc3)nc(Nc3ccc(C(=O)NCc4ccccc4)cc3)n2)cc1 [compound 125]" recordedendpoint="Inh (% of Ctl) 0.1 μM" obsvalue="3.2 % of Ctl"
compound="O=C(NCCOCCOCCNc1nc(Nc2ccc(O)cc2)nc(Nc2ccc(C(=O)NCc3cc(F)cc(F)c3)cc2)n1)c1ccccc1 [compound 130]" recordedendpoint="Inh (% of Ctl) 0.1 μM" obsvalue="41.6 % of Ctl"
compound="N[C@@H](C(=O)NCCOCCNc1nc(Nc2ccc(O)cc2)nc(Nc2ccc(C(=O)NCc3ccccc3)cc2)n1)c1ccccc1 [compound 132]" recordedendpoint="Inh (% of Ctl) 0.1 μM" obsvalue="15.0 % of Ctl"
compound="O=C(NCCOCCOCCNc1nc(Nc2ccc(O)cc2)nc(Nc2ccc(C(=O)NCc3ccc(Cl)cc3)cc2)n1)c1ccccc1 [compound 91]" recordedendpoint="Inh (% of Ctl) 0.1 μM" obsvalue="60.8 % of Ctl"
compound="Cc1cccc(CNC(=O)c2ccc(Nc3nc(NCCOCCOCCNC(=O)c4ccccc4)nc(Nc4ccc(O)cc4)n3)cc2)c1 [compound 107]" recordedendpoint="Inh (% of Ctl) 0.1 μM" obsvalue="65.2 % of Ctl"
compound="O=C(NCCOCCOCCNc1nc(Nc2ccc(C(=O)NCc3ccc(F)cc3)cc2)nc(Nc2ccc(O)c(C(=O)O)c2)n1)c1ccccc1 [compound 146]" recordedendpoint="Inh (% of Ctl) 0.1 μM" obsvalue="28.5 % of Ctl"
compound="O=C(NCCOCCNc1nc(Nc2ccc(O)cc2)nc(Nc2ccc(C(=O)NCc3ccccc3)cc2)n1)c1ccc(F)cc1 [compound 136]" recordedendpoint="Inh (% of Ctl) 0.1 μM" obsvalue="33.3 % of Ctl"
compound="O=C(NCCOCCOCCNc1nc(Nc2ccc(O)cc2)nc(Nc2ccc(C(=O)NCc3cccc(Cl)c3)cc2)n1)c1ccccc1 [compound 87]" recordedendpoint="Inh (% of Ctl) 0.1 μM" obsvalue="55.1 % of Ctl"
compound="COc1cccc(CNC(=O)c2ccc(Nc3nc(NCCOCCOCCNC(=O)c4ccccc4)nc(Nc4ccc(O)cc4)n3)cc2)c1 [compound 88]" recordedendpoint="Inh (% of Ctl) 0.1 μM" obsvalue="61.8 % of Ctl"
compound="O=C(NCc1ccccc1)c1ccc(Nc2nc(NCCOCCNS(=O)(=O)c3ccccc3)nc(Nc3ccc(O)cc3)n2)cc1 [compound 138]" recordedendpoint="Inh (% of Ctl) 0.1 μM" obsvalue="17.8 % of Ctl"
compound="O=C(NCCOCCOCCNc1nc(Nc2ccccc2)nc(Nc2ccc(C(=O)NCc3ccccc3)cc2)n1)c1ccccc1 [compound 116]" recordedendpoint="Inh (% of Ctl) 0.1 μM" obsvalue="36.4 % of Ctl"
compound="CCCCCCNC(=O)c1ccc(Nc2nc(NCCOCCNC(=O)c3ccccc3)nc(Nc3ccc(O)cc3)n2)cc1 [compound 119]" recordedendpoint="Inh (% of Ctl) 0.1 μM" obsvalue="57.2 % of Ctl"
compound="COC(=O)[C@@H](NC(=O)c1ccc(Nc2nc(NCCOCCOCCNC(=O)c3ccccc3)nc(Nc3ccc(O)cc3)n2)cc1)c1ccccc1 [compound 74]" recordedendpoint="Inh (% of Ctl) 0.1 μM" obsvalue="45.0 % of Ctl"
compound="O=C(NCCOCCOCCNc1nc(Nc2ccc(O)cc2)nc(Nc2ccc(C(=O)NCc3ccc(F)cc3)cc2)n1)c1ccccc1 [compound 99]" recordedendpoint="Inh (% of Ctl) 0.1 μM" obsvalue="81.3 % of Ctl"
compound="O=C(NCCOCCOCCNc1nc(Nc2ccc(O)cc2)nc(Nc2ccc(C(=O)NCCc3ccccc3)cc2)n1)c1ccccc1 [compound 111]" recordedendpoint="Inh (% of Ctl) 0.1 μM" obsvalue="52.2 % of Ctl"
compound="O=C(NCCOCCOCCNc1nc(Nc2ccc(O)cc2)nc(Nc2ccc(C(=O)NCc3ccc(Br)cc3)cc2)n1)c1ccccc1 [compound 109]" recordedendpoint="Inh (% of Ctl) 0.1 μM" obsvalue="49.5 % of Ctl"
compound="O=C(NCCOCCOCCNc1nc(Nc2ccc(O)cc2)nc(Nc2ccc(C(=O)NCC3CCCCC3)cc2)n1)c1ccccc1 [compound 115]" recordedendpoint="Inh (% of Ctl) 0.1 μM" obsvalue="54.4 % of Ctl"
compound="O=C(NCCOCCNc1nc(Nc2ccc(O)cc2)nc(Nc2ccc(C(=O)NCc3ccccc3)cc2)n1)c1ccccc1 [compound 118]" recordedendpoint="Inh (% of Ctl) 0.1 μM" obsvalue="74.2 % of Ctl"
compound="O=C(NCc1ccc(F)cc1)c1ccc(Nc2nc(Nc3ccc(O)cc3)nc(Nc3ccc(O)cc3)n2)cc1 [compound 145]" recordedendpoint="Inh (% of Ctl) 0.1 μM" obsvalue="7.1 % of Ctl"
compound="O=C(NCc1ccc(F)cc1)c1ccc(Nc2nc(Nc3ccc(O)cc3)nc(Nc3ccc(CNCc4ccccc4)cc3)n2)cc1 [compound 149]" recordedendpoint="Inh (% of Ctl) 0.1 μM" obsvalue="3.8 % of Ctl"
compound="O=C(NCCOCCOCCNc1nc(Nc2ccc(O)cc2)nc(Nc2ccc(C(=O)NCc3c(F)cccc3F)cc2)n1)c1ccccc1 [compound 128]" recordedendpoint="Inh (% of Ctl) 0.1 μM" obsvalue="36.6 % of Ctl"
compound="O=C(NCCOCCOCCNc1nc(Nc2ccc(O)cc2)nc(Nc2ccc(C(=O)NCc3ccc(C(F)(F)F)cc3)cc2)n1)c1ccccc1 [compound 113]" recordedendpoint="Inh (% of Ctl) 0.1 μM" obsvalue="36.8 % of Ctl"
compound="O=C(NCCOCCOCCNc1nc(Nc2ccc(O)cc2)nc(Nc2ccc(C(=O)NCc3cc(Cl)cc(Cl)c3)cc2)n1)c1ccccc1 [compound 108]" recordedendpoint="Inh (% of Ctl) 0.1 μM" obsvalue="70.3 % of Ctl"
compound="COC(=O)c1ccc(CNc2nc(NCCOCCOCCNC(=O)c3ccccc3)nc(Nc3ccc(C(=O)NCc4ccccc4)cc3)n2)cc1 [compound 117]" recordedendpoint="Inh (% of Ctl) 0.1 μM" obsvalue="8.1 % of Ctl"
